SYSTEM: BIKE (Homo sapiens)
Construct: gene BMP2K; catalytic domain-containing construct
Sequence (Q9NSY1 whole entry, the tested form may be a part): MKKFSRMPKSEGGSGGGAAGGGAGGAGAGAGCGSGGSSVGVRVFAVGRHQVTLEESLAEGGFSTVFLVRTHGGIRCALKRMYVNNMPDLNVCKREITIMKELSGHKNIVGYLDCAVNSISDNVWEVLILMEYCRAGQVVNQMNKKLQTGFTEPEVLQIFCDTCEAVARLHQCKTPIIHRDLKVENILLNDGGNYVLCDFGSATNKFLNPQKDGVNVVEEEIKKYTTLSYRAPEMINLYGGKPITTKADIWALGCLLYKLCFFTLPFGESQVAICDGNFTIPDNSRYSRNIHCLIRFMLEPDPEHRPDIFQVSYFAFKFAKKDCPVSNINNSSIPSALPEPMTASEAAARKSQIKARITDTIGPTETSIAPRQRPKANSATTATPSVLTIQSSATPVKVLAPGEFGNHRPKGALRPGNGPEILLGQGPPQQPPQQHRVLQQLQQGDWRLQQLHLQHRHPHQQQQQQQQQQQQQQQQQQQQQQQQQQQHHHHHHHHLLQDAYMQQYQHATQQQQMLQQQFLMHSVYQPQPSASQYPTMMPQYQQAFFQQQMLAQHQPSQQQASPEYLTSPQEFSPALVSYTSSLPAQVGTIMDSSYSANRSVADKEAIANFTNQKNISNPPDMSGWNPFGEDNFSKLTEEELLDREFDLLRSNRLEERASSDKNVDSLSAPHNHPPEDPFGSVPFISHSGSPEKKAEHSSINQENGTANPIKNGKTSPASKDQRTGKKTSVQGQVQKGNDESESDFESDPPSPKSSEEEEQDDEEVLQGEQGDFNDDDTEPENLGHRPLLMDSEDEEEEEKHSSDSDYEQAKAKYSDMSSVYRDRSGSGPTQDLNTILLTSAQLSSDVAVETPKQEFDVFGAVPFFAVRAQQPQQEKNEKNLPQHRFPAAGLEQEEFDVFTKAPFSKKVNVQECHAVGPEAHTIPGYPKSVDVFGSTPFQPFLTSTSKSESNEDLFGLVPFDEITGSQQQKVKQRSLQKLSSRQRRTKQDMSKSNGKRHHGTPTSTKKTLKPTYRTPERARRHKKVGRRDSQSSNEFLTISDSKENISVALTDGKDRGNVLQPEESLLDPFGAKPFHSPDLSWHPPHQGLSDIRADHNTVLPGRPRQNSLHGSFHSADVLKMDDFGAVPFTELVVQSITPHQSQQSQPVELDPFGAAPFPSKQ
PROCEDURE_TEXT: biochemical
Set-up: Thermal shift assay (DSF, SYPRO Orange), 2 uM kinase domain, mean delta Tm of triplicates versus DMSO
CONDITION_PARAMETERS: read-out: BIKE
VALUE_TYPE: ΔTm at 12.5 µM (°C)
One number for each entry, in °C.

{"TEST_SMILES": "CCn1c(C(=O)N(C2CC2)C2CC2)cc2c3c(ncn3C)c(Nc3cc(C)n(C)n3)nc21", "ΔTm at 12.5 µM, °C": 4.41}
{"TEST_SMILES": "COC(=O)c1ccc2c(c1)NC(=O)/C2=C(\\Nc1ccc(N(C)C(=O)CN2CCN(C)CC2)cc1)c1ccccc1", "ΔTm at 12.5 µM, °C": 7.61}
{"TEST_SMILES": "CN1CCN(CCOc2cc(OC3CCOCC3)c3c(Nc4c(Cl)ccc5c4OCO5)ncnc3c2)CC1", "ΔTm at 12.5 µM, °C": 4.59}

So what's the measured ΔTm at 12.5 µM for this one? CC[C@H](CO)Nc1nc(NCc2ccccc2)c2ncn(C(C)C)c2n1
0.43
